Test system: Escherichia coli TOP10
Experiment: shrunken log2 fold change of peptide-encoding DNA abundance (4.5 h post-induction vs induction); higher = less antimicrobial activity (less host growth inhibition)
Conditions: time post-induction: 4.5 h; library: site-saturation at positions 5, 18, 19, 20
Where shrunken log2 fold change equals or exceeds -0.03, the correct label is condition met; where it does not, the label is condition not met.

Sample answers from the record:
RRIRGRPPRLPRPRPRPQLRPRP : condition met
RRIRKRPPRLPRPRPRPMWNPRP : condition met

INPUT: Check the entry RRIRSRPPRLPRPRPRPCQCPRP : does shrunken log2 fold change equal or exceed -0.03?
OUTPUT: condition met

INPUT: Could you do the same for RRIRPRPPRLPRPRPRPHCHPRP , please?
OUTPUT: condition not met

INPUT: Repeat with RRIRYRPPRLPRPRPRPHNLPRP
OUTPUT: condition not met

INPUT: Then what about the sequence RRIRFRPPRLPRPRPRPVEFPRP ?
OUTPUT: condition not met

INPUT: Now the sequence RRIRVRPPRLPRPRPRPINLPRP
OUTPUT: condition not met

###

Test system: Escherichia coli TOP10
Assay: shrunken log2 fold change of peptide-encoding DNA abundance (4.5 h post-induction vs induction); higher = less antimicrobial activity (less host growth inhibition)
Conditions: time post-induction: 4.5 h; library: site-saturation at positions 5, 18, 19, 20
The label depends only on shrunken log2 fold change: Criterion met if it is at least -0.3, Criterion not met if it is smaller.

Solved entries (count: 3):
RRIRMRPPRLPRPRPRPSDNPRP : Criterion met
RRIRIRPPRLPRPRPRPMQMPRP : Criterion not met
RRIRCRPPRLPRPRPRPIPNPRP : Criterion met

INPUT: Evaluate RRIRERPPRLPRPRPRPINQPRP : shrunken log2 fold change at minimum -0.3?
OUTPUT: Criterion not met

INPUT: Also check RRIRRRPPRLPRPRPRPRTVPRP
OUTPUT: Criterion met

INPUT: RRIRVRPPRLPRPRPRPGLDPRP ?
OUTPUT: Criterion met

INPUT: Same question, RRIRIRPPRLPRPRPRPYMCPRP this time
OUTPUT: Criterion not met

INPUT: Also, RRIRPRPPRLPRPRPRPNDHPRP please.
OUTPUT: Criterion not met

###

Tested on: Escherichia coli TOP10;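 also: peptides expressed intracellularly from a pBAD plasmid library in pooled LB shake-flask culture, induced with 0.3% L-arabinose, DNA abundance read by NGS, three biological replicates, DESeq2 with apeglm shrinkage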
Assay: shrunken log2 fold change of peptide-encoding DNA abundance (4.5 h post-induction vs induction); higher = less antimicrobial activity (less host growth inhibition)
Settings: time post-induction: 4.5 h; library: site-saturation at positions 5, 18, 19, 20
ATTRIBUTE MEASURED: shrunken log2 fold change
Number only, no unit.

Look over these answered cases.
RRIRDRPPRLPRPRPRPCPEPRP : -0.0682
RRIRCRPPRLPRPRPRPLASPRP : 0.139
RRIRERPPRLPRPRPRPHFPPRP : -0.151

INPUT: Record RRIRTRPPRLPRPRPRPCPCPRP : what is its shrunken log2 fold change with Escherichia coli TOP10?
OUTPUT: -0.366

INPUT: Request: RRIRFRPPRLPRPRPRPHMMPRP
OUTPUT: -0.283

INPUT: Same read-out for RRIRIRPPRLPRPRPRPSAYPRP ?
OUTPUT: -0.138

INPUT: Also need RRIRQRPPRLPRPRPRPLERPRP , thanks.
OUTPUT: 0.0228

INPUT: Follow-up item: RRIRWRPPRLPRPRPRPNTFPRP
OUTPUT: 2.19
